protocol: recombinant UMI read abundance after kanamycin selection (control-corrected) (log10(CPM+1)); higher = more efficient recombination; extreme values may be limits of the assay; sequences stand for … in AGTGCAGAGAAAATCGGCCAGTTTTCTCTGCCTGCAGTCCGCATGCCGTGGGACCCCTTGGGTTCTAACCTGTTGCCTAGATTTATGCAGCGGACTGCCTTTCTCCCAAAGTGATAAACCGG…AGGTTGGTTTCACT; site = the 11-nt donor;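 also: IS621 bridge recombinase in Escherichia coli cells against a fixed T5 target plasmid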
quantity-kind: recombinant UMI read abundance (log10)
Give the figure by itself; no unit, no explanation.

Worked cases, answers included:
sequence-chain: TGATAGGCATGGACCGGTTTTCCCGGTAATCCGTATTTGGT (site TGTTAGGCTAC)
recombinant UMI read abundance (log10): 0.02
//
sequence-chain: ACAGTATCATGGACCGGTTTTCCCGGTAATCCGTATTTGCC (site ACAGTATCTGG)
recombinant UMI read abundance (log10): 2.92
//
sequence-chain: CGGGAGACATGGACCGGTTTTCCCGGTAATCCGTATTTGCC (site CGGGAGCCTGG)
recombinant UMI read abundance (log10): 0

What recombinant UMI read abundance (log10) value was documented for this sequence, GTGGAAGCATGGACCGGTTTTCCCGGTAATCCGTATTTGTG (site GTGGACGCTCA) ?
0.582

Also need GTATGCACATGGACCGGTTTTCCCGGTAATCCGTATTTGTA (site GAATGCACTTA) , thanks.
0.0229
